Reference for the values: patent US9113629B2

pest or weed control at 35 g/ha for assorted molecules
Tested on: KCHSC: kochia (Kochia scoparia)
Test: Post-emergent Test III, herbicidal activity in wheat and barley
Type: in vivo
Settings: Bassia scoparia, post-emergence, 504 h; 35 g ai/ha; read-out: Visual Growth Reduction (%) 21 Days After Application KCHSC

# MOL SMILES, pest or weed control at 35 g/ha
records = [
    ("C=Cc1c(C(=O)O)nc(-c2ccc(Cl)c(F)c2)c(F)c1N", "75 to 84%"),
    ("COC(=O)c1nc(-c2ccc(F)cc2)c(F)c(N)c1Cl", "85 to 94%"),
    ("COC(=O)c1nc(-c2ccc(F)c(F)c2F)c(F)c(N)c1Cl", "60 to 74%"),
    ("COC(=O)c1nc(-c2ccc(C#N)cc2)c(F)c(N)c1Cl", "45 to 59%"),
    ("COC(=O)c1nc(-c2ccc(OC(F)F)cc2)c(F)c(N)c1Cl", "0 to 29%"),
    ("COC(=O)c1nc(-c2ccc(C(F)F)cc2)c(F)c(N)c1Cl", "60 to 74%"),
]
